Test: UV-Vis absorption and fluorescence spectroscopy (spectral properties in aqueous media / PBS buffer)
Assay type: physicochemical
Settings: aqueous media; emission band width
FWHem (nm) for assorted molecules

# example entries with known answers
{"Molecule": "Cc1cc(C(=O)NCCOCCOCCCCCCCl)ccc1-c1c2cc/c(=[N+](/C)CCCS(=O)(=O)[O-])cc-2oc2cc(N(C)C)ccc12 [OF550HALO]", "Measured Result": "42 nm"}
{"Molecule": "Cc1cc(C(=O)NCc2ccc(COc3nc(N)nc4[nH]cnc34)cc2)ccc1-c1c2cc/c(=[N+](/C)CCCS(=O)(=O)[O-])cc-2oc2cc(N(C)C)ccc12 [OF550SNAP]", "Measured Result": "43 nm"}
{"Molecule": "Cc1cc(C(=O)NCCCn2cc(-c3cccc(Nc4ncnc5ccccc45)c3)nn2)ccc1-c1c2cc/c(=[N+](/C)CCCS(=O)(=O)[O-])cc-2oc2cc(N(C)C)ccc12 [OF550Erl(UnT)]", "Measured Result": "44 nm"}
{"Molecule": "C#Cc1cccc(Nc2ncnc3ccc(NC(=O)CCNC(=O)c4ccc(C(=O)[O-])c(-c5c6ccc(=[N+](C)C)cc-6oc6cc(N(C)C)ccc56)c4)cc23)c1 [TMRErl(T)]", "Measured Result": "42 nm"}
{"Molecule": "CN(C)c1ccc2c(-c3cc(C(=O)NCc4ccc(COc5nc(N)nc6[nH]cnc56)cc4)ccc3C(=O)[O-])c3ccc(=[N+](C)C)cc-3oc2c1 [TMRSNAP]", "Measured Result": "45 nm"}

Query string: # FWHem (nm) lookup, item Cc1ccccc1C1=C2C=C/C(=[N+](/C)CCCS(=O)(=O)[O-])C=C2[Si](C)(C)c2cc(N(C)C)ccc21 [OF650]
Result string: 40 nm

Query string: Consider next the molecule C#Cc1cccc(Nc2ncnc3ccc(NC(=O)CCNC(=O)c4ccc(C(=O)[O-])c(C5=C6C=CC(=[N+](C)C)C=C6[Si](C)(C)c6cc(N(C)C)ccc65)c4)cc23)c1 [SiRErl(T)] in the same way.
Result string: 53 nm

Query string: Consider next the molecule Cc1cc(C(=O)O)ccc1-c1c2cc/c(=[N+](/C)CCCS(=O)(=O)[O-])cc-2oc2cc(N(C)C)ccc12 [OF550COOH] in the same way.
Result string: 42 nm

Query string: Consider next the molecule CN(C)c1ccc2c(c1)[Si](C)(C)C1=CC(=[N+](C)C)C=CC1=C2c1cc(C(=O)O)ccc1C(=O)[O-] [SiRCOOH] in the same way.
Result string: 42 nm

Query string: Consider next the molecule CN(C)c1ccc2c(c1)[Si](C)(C)C1=CC(=[N+](C)C)C=CC1=C2c1cc(C(=O)NCCOCCOCCCCCCCl)ccc1C(=O)[O-] [SiRHALO] in the same way.
Result string: 45 nm

Query string: Consider next the molecule CN(C)c1ccc2c(c1)[Si](C)(C)C1=CC(=[N+](C)C)C=CC1=C2c1ccccc1C(=O)O [SiR] in the same way.
Result string: 41 nm

Query string: Consider next the molecule CN(C)c1ccc2c(-c3cc(C(=O)NCCCn4cc(-c5cccc(Nc6ncnc7ccccc67)c5)nn4)ccc3C(=O)[O-])c3ccc(=[N+](C)C)cc-3oc2c1 [TMRErl(UnT)] in the same way.
Result string: 43 nm

Query string: Consider next the molecule C#Cc1cccc(Nc2ncnc3ccc(NC(=O)CCNC(=O)c4ccc(C5=C6C=C/C(=[N+](/C)CCCS(=O)(=O)[O-])C=C6[Si](C)(C)c6cc(N(C)C)ccc65)c(C)c4)cc23)c1 [OF650Erl(T)] in the same way.
Result string: 41 nm

Query string: Consider next the molecule CN(C)c1ccc2c(-c3ccccc3C(=O)[O-])c3ccc(=[N+](C)C)cc-3oc2c1 [TMR] in the same way.
Result string: 42 nm

Query string: Consider next the molecule CN(C)c1ccc2c(-c3cc(C(=O)O)ccc3C(=O)[O-])c3ccc(=[N+](C)C)cc-3oc2c1 [TMRCOOH] in the same way.
Result string: 44 nm

Query string: Consider next the molecule Cc1ccccc1-c1c2cc/c(=[N+](/C)CCCS(=O)(=O)[O-])cc-2oc2cc(N(C)C)ccc12 [OF550] in the same way.
Result string: 40 nm

Query string: Consider next the molecule Cc1cc(C(=O)[O-])ccc1C1=C2C=C/C(=[N+](/C)CCCS(=O)(=O)O)C=C2[Si](C)(C)c2cc(N(C)C)ccc21 [OF650COOH] in the same way.
Result string: 42 nm

Query string: Consider next the molecule C#Cc1cccc(Nc2ncnc3ccc(NC(=O)CCNC(=O)c4ccc(-c5c6cc/c(=[N+](/C)CCCS(=O)(=O)[O-])cc-6oc6cc(N(C)C)ccc56)c(C)c4)cc23)c1 [OF550Erl(T)] in the same way.
Result string: 47 nm

Query string: Consider next the molecule CN(C)c1ccc2c(c1)[Si](C)(C)C1=CC(=[N+](C)C)C=CC1=C2c1cc(C(=O)NCCCn2cc(-c3cccc(Nc4ncnc5ccccc45)c3)nn2)ccc1C(=O)[O-] [SiRErl(UnT)] in the same way.
Result string: 43 nm

###

Assay: UV-Vis absorption and fluorescence spectroscopy (spectral properties in aqueous media / PBS buffer)
Format: physicochemical
Details: aqueous media; extinction coefficient from Beer's Law plots
Property Measured: ε (M^-1 cm-1)

# example entries with known answers
{"Compound": "Cc1cc(C(=O)O)ccc1-c1c2cc/c(=[N+](/C)CCCS(=O)(=O)[O-])cc-2oc2cc(N(C)C)ccc12 [OF550COOH]", "Property Measured": "ε (M^-1 cm-1)", "Measured Result": "112,600 M^-1 cm-1"}
{"Compound": "CN(C)c1ccc2c(-c3cc(C(=O)NCCCn4cc(-c5cccc(Nc6ncnc7ccccc67)c5)nn4)ccc3C(=O)[O-])c3ccc(=[N+](C)C)cc-3oc2c1 [TMRErl(UnT)]", "Property Measured": "ε (M^-1 cm-1)", "Measured Result": "18,700 M^-1 cm-1"}
{"Compound": "CN(C)c1ccc2c(c1)[Si](C)(C)C1=CC(=[N+](C)C)C=CC1=C2c1cc(C(=O)NCCOCCOCCCCCCCl)ccc1C(=O)[O-] [SiRHALO]", "Property Measured": "ε (M^-1 cm-1)", "Measured Result": "11,100 M^-1 cm-1"}
{"Compound": "Cc1ccccc1-c1c2cc/c(=[N+](/C)CCCS(=O)(=O)[O-])cc-2oc2cc(N(C)C)ccc12 [OF550]", "Property Measured": "ε (M^-1 cm-1)", "Measured Result": "97,300 M^-1 cm-1"}
{"Compound": "C#Cc1cccc(Nc2ncnc3ccc(NC(=O)CCNC(=O)c4ccc(-c5c6cc/c(=[N+](/C)CCCS(=O)(=O)[O-])cc-6oc6cc(N(C)C)ccc56)c(C)c4)cc23)c1 [OF550Erl(T)]", "Property Measured": "ε (M^-1 cm-1)", "Measured Result": "24,500 M^-1 cm-1"}

Query string: # ε (M^-1 cm-1) lookup, item CN(C)c1ccc2c(c1)[Si](C)(C)C1=CC(=[N+](C)C)C=CC1=C2c1cc(C(=O)O)ccc1C(=O)[O-] [SiRCOOH]
Result string: 64,700 M^-1 cm-1

Query string: Consider next the compound C#Cc1cccc(Nc2ncnc3ccc(NC(=O)CCNC(=O)c4ccc(C(=O)[O-])c(C5=C6C=CC(=[N+](C)C)C=C6[Si](C)(C)c6cc(N(C)C)ccc65)c4)cc23)c1 [SiRErl(T)] in the same way.
Result string: 34,800 M^-1 cm-1

Query string: Consider next the compound CN(C)c1ccc2c(-c3ccccc3C(=O)[O-])c3ccc(=[N+](C)C)cc-3oc2c1 [TMR] in the same way.
Result string: 60,900 M^-1 cm-1

###

Experiment: UV-Vis absorption and fluorescence spectroscopy (spectral properties in aqueous media / PBS buffer)
Type: physicochemical
Conditions: aqueous media; absorption maximum
λabs (nm) for assorted compounds
Answer in nm, number only, no unit symbol.

# example entries with known answers
{"Compound": "Cc1cc(C(=O)[O-])ccc1C1=C2C=C/C(=[N+](/C)CCCS(=O)(=O)O)C=C2[Si](C)(C)c2cc(N(C)C)ccc21 [OF650COOH]", "Measured Result": 650}
{"Compound": "CN(C)c1ccc2c(c1)[Si](C)(C)C1=CC(=[N+](C)C)C=CC1=C2c1ccccc1C(=O)O [SiR]", "Measured Result": 642}
{"Compound": "Cc1ccccc1-c1c2cc/c(=[N+](/C)CCCS(=O)(=O)[O-])cc-2oc2cc(N(C)C)ccc12 [OF550]", "Measured Result": 552}
{"Compound": "Cc1cc(C(=O)NCCOCCOCCCCCCCl)ccc1-c1c2cc/c(=[N+](/C)CCCS(=O)(=O)[O-])cc-2oc2cc(N(C)C)ccc12 [OF550HALO]", "Measured Result": 556}
{"Compound": "Cc1ccccc1C1=C2C=C/C(=[N+](/C)CCCS(=O)(=O)[O-])C=C2[Si](C)(C)c2cc(N(C)C)ccc21 [OF650]", "Measured Result": 649}
{"Compound": "C#Cc1cccc(Nc2ncnc3ccc(NC(=O)CCNC(=O)c4ccc(-c5c6cc/c(=[N+](/C)CCCS(=O)(=O)[O-])cc-6oc6cc(N(C)C)ccc56)c(C)c4)cc23)c1 [OF550Erl(T)]", "Measured Result": 566}

Next up:
Query string: # λabs (nm) lookup, item C#Cc1cccc(Nc2ncnc3ccc(NC(=O)CCNC(=O)c4ccc(C5=C6C=C/C(=[N+](/C)CCCS(=O)(=O)[O-])C=C6[Si](C)(C)c6cc(N(C)C)ccc65)c(C)c4)cc23)c1 [OF650Erl(T)]
Result string: 656
